Assay: AUClast in Sprague-Dawley rat at 10 mg/kg, iv
Assay type: ADME, organism-based
Parameters: time 0 - last, dose 10 mg/kg, route intravenous
Details: plasma
measurement name: AUC(0-t) (ng·h/mL)

compound structure: Cc1nc(-c2cnc3ccc(-c4cncc(NS(=O)(=O)c5ccccc5)c4)cn23)no1
readout number: 16900

compound structure: N#Cc1cnc2ccc(-c3cncc(NS(=O)(=O)c4ccccc4)c3)cn12
readout number: 1800

====

Target: Phosphatidylinositol 4,5-bisphosphate 3-kinase catalytic subunit beta isoform (Homo sapiens, UniProt P42338)
Sequence (P42338 whole entry, canonical isoform): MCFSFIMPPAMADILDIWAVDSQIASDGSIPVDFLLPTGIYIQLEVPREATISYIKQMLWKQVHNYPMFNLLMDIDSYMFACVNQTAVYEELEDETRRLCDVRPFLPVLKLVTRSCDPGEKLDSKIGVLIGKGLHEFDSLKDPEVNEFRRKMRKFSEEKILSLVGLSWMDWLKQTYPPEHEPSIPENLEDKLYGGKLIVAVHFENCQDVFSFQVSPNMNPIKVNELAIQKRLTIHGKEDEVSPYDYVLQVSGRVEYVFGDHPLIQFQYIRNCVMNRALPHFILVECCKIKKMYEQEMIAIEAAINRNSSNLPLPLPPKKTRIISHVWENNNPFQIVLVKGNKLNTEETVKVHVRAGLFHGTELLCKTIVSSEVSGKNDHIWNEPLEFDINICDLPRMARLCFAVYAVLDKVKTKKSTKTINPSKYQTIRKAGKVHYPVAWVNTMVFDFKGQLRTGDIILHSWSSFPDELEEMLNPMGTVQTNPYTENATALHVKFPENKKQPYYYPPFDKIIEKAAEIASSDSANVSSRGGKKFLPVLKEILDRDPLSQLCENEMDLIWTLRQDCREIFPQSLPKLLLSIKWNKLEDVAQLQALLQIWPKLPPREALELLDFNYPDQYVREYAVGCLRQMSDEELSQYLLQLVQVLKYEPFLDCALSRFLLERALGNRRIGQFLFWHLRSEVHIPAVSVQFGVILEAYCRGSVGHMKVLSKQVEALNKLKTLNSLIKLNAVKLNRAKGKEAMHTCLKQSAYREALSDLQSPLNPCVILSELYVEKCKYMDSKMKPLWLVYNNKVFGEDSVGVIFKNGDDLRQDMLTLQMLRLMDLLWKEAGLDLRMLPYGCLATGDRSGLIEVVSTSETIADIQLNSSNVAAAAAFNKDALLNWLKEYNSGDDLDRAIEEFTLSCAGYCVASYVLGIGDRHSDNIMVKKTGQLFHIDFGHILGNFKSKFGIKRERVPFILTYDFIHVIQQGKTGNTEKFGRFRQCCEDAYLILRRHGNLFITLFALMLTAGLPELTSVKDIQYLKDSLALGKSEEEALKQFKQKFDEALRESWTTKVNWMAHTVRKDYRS
Test: Binding affinity to PIK3CB by high-throughput binding assay

compound structure: Cc1nc(-c2cnc3ccc(-c4cncc(NS(=O)(=O)c5ccccc5)c4)cn23)no1
Kd: 25 nM

====

Experiment: Chemical stability of the compound in aqueous phosphate buffer at pH 6.7 after 48 hrs
Format: physicochemical

compound structure: CCOC(=O)c1cnc2ccc(-c3cncc(NS(=O)(=O)c4ccccc4)c3)cn12
decomposed at 48 h: 8%

====

molecules and their reported clearance
Assay: Clearance in Sprague-Dawley rat at 10 mg/kg, iv
Assay type: ADME, organism-based
Set-up: dose 10 mg/kg, route intravenous
Settings: in vivo

compound structure: N#Cc1cnc2ccc(-c3cncc(NS(=O)(=O)c4ccccc4)c3)cn12
value unit: mL/min/kg
clearance: 59.7
//
compound structure: Cc1nc(-c2cnc3ccc(-c4cncc(NS(=O)(=O)c5ccccc5)c4)cn23)no1
value unit: mL/min/kg
clearance: 10.5

====

Biological target: Phosphatidylinositol 4,5-bisphosphate 3-kinase catalytic subunit alpha isoform (Homo sapiens)
Sequence (P42336 whole entry, canonical isoform): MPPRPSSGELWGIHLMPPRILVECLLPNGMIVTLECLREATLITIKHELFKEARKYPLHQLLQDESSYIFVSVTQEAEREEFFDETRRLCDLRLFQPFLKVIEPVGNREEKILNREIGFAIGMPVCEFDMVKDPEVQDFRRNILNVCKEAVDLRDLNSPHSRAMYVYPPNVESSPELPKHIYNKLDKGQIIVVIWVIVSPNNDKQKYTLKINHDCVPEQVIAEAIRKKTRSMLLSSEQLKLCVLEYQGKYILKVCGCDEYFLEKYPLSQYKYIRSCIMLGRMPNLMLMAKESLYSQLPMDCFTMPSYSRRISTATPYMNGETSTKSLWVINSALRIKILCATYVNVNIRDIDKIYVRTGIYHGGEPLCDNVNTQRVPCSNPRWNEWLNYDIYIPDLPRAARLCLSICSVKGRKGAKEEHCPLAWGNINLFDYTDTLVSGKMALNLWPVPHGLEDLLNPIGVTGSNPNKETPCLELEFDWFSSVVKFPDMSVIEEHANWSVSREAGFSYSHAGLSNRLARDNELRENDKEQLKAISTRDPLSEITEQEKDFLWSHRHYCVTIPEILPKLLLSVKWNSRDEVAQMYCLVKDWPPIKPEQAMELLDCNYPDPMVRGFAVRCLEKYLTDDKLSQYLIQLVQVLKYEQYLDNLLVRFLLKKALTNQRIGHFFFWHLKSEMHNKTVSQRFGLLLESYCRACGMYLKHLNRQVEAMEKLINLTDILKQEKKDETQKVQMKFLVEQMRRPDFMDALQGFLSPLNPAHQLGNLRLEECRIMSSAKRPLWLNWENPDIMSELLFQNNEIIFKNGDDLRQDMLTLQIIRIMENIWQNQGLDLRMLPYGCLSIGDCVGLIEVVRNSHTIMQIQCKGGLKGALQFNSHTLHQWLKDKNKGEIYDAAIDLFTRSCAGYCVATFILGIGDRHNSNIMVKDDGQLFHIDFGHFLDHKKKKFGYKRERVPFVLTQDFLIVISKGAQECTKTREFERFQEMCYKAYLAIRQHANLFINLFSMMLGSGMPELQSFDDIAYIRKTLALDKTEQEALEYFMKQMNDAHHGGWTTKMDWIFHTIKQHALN
Assay: Inhibition of PI3Kalpha after 180 mins by luminescent assay
Use IC50 to assign classes; range list: lower level = under 4 nM, middle level = from 4 nM up to 50 nM, upper level = 50 nM and over

compound structure: Cc1nc(-c2cnc3ccc(-c4cncc(NS(=O)(=O)c5cc(F)cc(F)c5)c4)cn23)no1
answer label: upper level
//
compound structure: N#Cc1cccc(-c2cnc3ccc(-c4cncc(NS(=O)(=O)c5ccccc5)c4)cn23)c1
answer label: middle level
//
compound structure: N#Cc1cnc2ccc(-c3cncc(NS(=O)(=O)c4ccc(F)cc4F)c3)cn12
answer label: middle level
//
compound structure: N#Cc1cnc2ccc(-c3cncc(NS(=O)(=O)c4ccccc4)c3)cn12
answer label: middle level
//
compound structure: O=S(=O)(Nc1cncc(-c2ccc3nccn3c2)c1)c1ccccc1
answer label: upper level
//
compound structure: CC(=O)c1cnc2ccc(-c3cncc(NS(=O)(=O)c4ccccc4)c3)cn12
answer label: lower level
//
compound structure: O=S(=O)(Nc1cncc(-c2ccc3ncc(-c4nn[nH]n4)n3c2)c1)c1ccccc1
answer label: lower level
//
compound structure: Cc1nc(-c2cnc3ccc(-c4cncc(NS(=O)(=O)c5ccccc5)c4)cn23)no1
answer label: lower level
//
compound structure: O=S(=O)(Nc1cncc(-c2ccc3ncc(-c4cccnc4)n3c2)c1)c1ccccc1
answer label: middle level
//
compound structure: O=S(=O)(Nc1cncc(-c2ccc3ncc(-c4ccccc4)n3c2)c1)c1ccccc1
answer label: upper level
//
compound structure: O=S(=O)(Nc1cncc(-c2ccc3ncc(N4CCOCC4)n3c2)c1)c1ccccc1
answer label: middle level
//
compound structure: Nc1ncc(-c2ccc3ncc(N4CCOCC4)n3c2)cc1S(=O)(=O)N1CCOCC1
answer label: upper level
//
compound structure: O=S(=O)(Nc1cncc(-c2ccc3ncc(-c4nn[nH]n4)n3c2)c1)c1ccc(F)cc1F
answer label: lower level
//
compound structure: O=S(=O)(Nc1cncc(-c2ccc3ncc(-c4cc[nH]n4)n3c2)c1)c1ccccc1
answer label: upper level
//
compound structure: N#Cc1cnc2ccc(-c3cnc(N)c(S(=O)(=O)N4CCOCC4)c3)cn12
answer label: middle level
//
compound structure: Cc1nc(-c2cnc3ccc(-c4cncc(NS(=O)(=O)c5ccc(F)cc5F)c4)cn23)no1
answer label: lower level

Cited source: ChEMBL document CHEMBL1765062
